biological target: UniProt Q9HAC7
Sequence (Q9HAC7 31-438 limits assumed): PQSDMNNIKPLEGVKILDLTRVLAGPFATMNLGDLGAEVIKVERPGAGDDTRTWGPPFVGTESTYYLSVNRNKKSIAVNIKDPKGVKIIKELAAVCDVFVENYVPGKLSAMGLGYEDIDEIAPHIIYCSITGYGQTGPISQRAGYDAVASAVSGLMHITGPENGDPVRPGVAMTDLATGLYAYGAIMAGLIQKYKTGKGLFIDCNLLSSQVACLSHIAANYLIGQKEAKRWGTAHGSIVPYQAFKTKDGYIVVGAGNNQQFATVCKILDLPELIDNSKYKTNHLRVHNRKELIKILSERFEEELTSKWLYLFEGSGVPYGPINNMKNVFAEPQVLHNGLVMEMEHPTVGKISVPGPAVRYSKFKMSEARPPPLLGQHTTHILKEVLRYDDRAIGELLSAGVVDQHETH
pIC50: −log10 of the molar value.

{"structure": "CCCCC(=O)N(Cc1ccc(-c2ccccc2-c2nnn[nH]2)cc1)[C@H](C(=O)O)C(C)C", "pIC50": 5.42}

Ref: paper PMC10871334
